Taken from patent US20250326855A1.

# study_target: T1, CD44v6 glycopeptide … with O-linked GalNAc on threonine 5 and serine 12 (human)
# T1 construct: Synthetic glycopeptide; also called CD44v6-Tn(S + T); Tn-glycosylated CD44v6 glycopeptide
# T1 peptide: GYRQT(GalNAc)PKEDSHS(GalNAc)TTGTAAA
# method_description: hybridoma screening (ELISA, flow cytometry, immunofluorescence)
Where no end group is shown, it is not given here. GalNAc = O-linked GalNAc (Tn antigen, GalNAc-alpha1-O-Ser/Thr)
metric_name: binding result

2B2 antibody (antibody, V domains shown, Murine monoclonal antibody) VH: EVQLVESGGGLVKPGGSLKLSCAASGFTFSSYAMSWVRQSPERRLEWVAEISSGGSYTYYPDTVTGRFTISRDNAKNTLYLEMSSLRSEDTAMYYCARTVGEDWYFDVWGAGTTVTVSS VL: DIQMTQTTSSLSASLGDRVTISCRASQDISHYLNWYQQKPDGAVKLLIYSTSRLHSGVPSRFSGSGSGTDYSLTISNLEQEDIATYFCQQGYTLPFTFGSGTKLEIK = binds
